assay: protein stability index of a GFP-peptide fusion (yeast GPS) (PSI 1-4); higher = more stable; sorted into four equal gates, so the index is relative within each strain; settings: doa10∆
I'd appreciate it if you could supply protein stability index values for the items below.

- sequenceEntry: "YVSQIRKHKRVSPNAAP [YAR002W/NUP60]"
  protein stability index: 1.95
- sequenceEntry: "LVSRGGCGNTQPTIRKD [RPO21]"
  protein stability index: 2.96
- sequenceEntry: "PKMQWSLQDNSAAINNE [RPN4]"
  protein stability index: 3.15

Parameters: items (list). Returns: protein stability index for each item.
1. AFTCFCIKKIMENNEPA [SRB8]
2. KLLNDLALENGEITKTE [NUT1]
3. PSTGGVKKPHRYKPGTV [HHT1]
4. LRADKLYEKLKQEIMMS [ISW2]
5. EKGKKVTGFKDEVLETV [RPS1A]

[out]
1: 2.21; 2: 3.13; 3: 1.59; 4: 1.63; 5: 1.32
